- ASSAY_DETAILS: chemical genetic growth profiling, strain panel (AID 1159580);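 note: tested at 20 µM; growth read once vehicle control cultures reached saturation at 30 °C; lower values mean less growth of the strain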
- EXPERIMENTAL_CONDITIONS: S. cerevisiae deletion strains, growth OD, locus YOR265W, strain rbl2
About 2,000 (36%) of roughly 5,500 compounds were called active. Inconclusive results (about 18%) are left out. Cut-off read from the data, not from the text of the source: active = normalized growth mostly below about 0.91 (no sharp cut-off); inconclusive = no clear call, values can overlap the other calls; inactive = mostly above about 0.92. The list shows a part of the results.
Your reply should match one of these outcome classes. YES (active), NO (inactive)

Please let me know the test result on file for CC(=O)[O][Hg][c]1ccccc1 .
YES

Please let me know the test result on file for COC(=O)C[C@H]1C(C)(C)[C@@H](O)[C@@H]2CC3=C4C=C(OC)O[C@@H](c5ccoc5)[C@]4(C)CCC3[C@@]1(C)C2=O (some centres not stated) .
NO

Please let me know the test result on file for COc1ccc(C2C(=O)c3ccccc3C2=O)cc1 .
NO

Please let me know the test result on file for CCOC([O-])=Nc1c[n+](N2CCOCC2)no1 .
NO

Please let me know the test result on file for C1CCC(C(CC2CCCCN2)C2CCCCC2)CC1 (configuration not stated) .
NO

Please let me know the test result on file for Cc1onc(-c2ccccc2)c1C(=O)NC1C(=O)N2[C@@H]1SC(C)(C)[C@@H]2C(=O)O (some centres not stated) .
NO

Please let me know the test result on file for O=C(O)c1cc(=O)c2cccc(O)c2[nH]1 .
NO
